system: recombinant human IL17a (binding to its receptor IL17R) (Homo sapiens, UniProt Q16552)
Construct: 177-IR (IL17R/Fc)
experimentalDetails: IL-17 competition ELISA I (IL17a coated, IL17R/Fc binding)
Protocol: ELISA I: The ability of the compounds to block binding of IL17a to its receptor, IL17R, was analyzed in a competition ELISA format. High binding 96-well plates (Costar #9018) were coated with 20 nM of recombinant human IL17a (R&D Systems #317-ILB) in PBS (0.64 μg/mL), 100 μL/well, for 30 min at 37′C followed by 5 min at 4′C. […] After the sufficient color development, the reaction was fixed by the addition of 100 μL/well 0.5 N HCl and absorbance was measured at 450 nm on Biotek plate reader. […]
pIC50: −log10 of the molar value.
# reported pIC50; entries follow

compound: CC1(C)CC(=O)NCCCCCNC(=O)CNC(=O)[C@@H](Cc2ccc(NC(=O)[C@H](Cc3cccs3)NC(=O)Cc3ccccc3)cc2)NC(=O)C1 [Compound 255]
pIC50: 5.00 to 6.00
--
compound: C[C@H]1NC(=O)[C@@H](Cc2ccc(NC(=O)[C@H](Cc3ccccc3Cl)NC(=O)c3cccnc3)cc2)NC(=O)CC2(CCCC2)CC(=O)NCCCCCNC1=O [Compound 353]
pIC50: 6.00 to 7.00
--
compound: CC(=O)N[C@@H](Cc1ccccc1Cl)C(=O)Nc1ccc(C[C@H]2NC(=O)CC3(CCCC3)CC(=O)N[C@H](C(=O)O)CCCCNC(=O)CNC2=O)cc1 [Compound 264]
pIC50: > 7.00
--
compound: O=C1CNC(=O)[C@@H](Cc2ccc(NC(=O)[C@H](Cc3ccccc3Cl)NC(=O)c3cccnc3)cc2)NC(=O)CC2(CCCC2)CC(=O)N[C@H](C(=O)O)CCCCN1 [Compound 266]
pIC50: > 7.00
--
compound: NC(=O)CC[C@H]1NC(=O)[C@@H](Cc2ccc(NC(=O)[C@H](Cc3ccccc3Cl)NC(=O)Cc3ccccc3)cc2)NC(=O)CC2(CCCC2)CC(=O)NCCCCCNC1=O [Compound 341]
pIC50: > 7.00
--
compound: O=C1CNC(=O)[C@@H](Cc2ccc(NC(=O)[C@H](Cc3ccc(Br)s3)NC(=O)Cc3ccccc3)cc2)NC(=O)CC2(CCCC2)CC(=O)OCCCCCN1 [Compound 225]
pIC50: 5.00 to 6.00
--
compound: COC(=O)[C@@H]1CCCCNC(=O)CNC(=O)[C@@H](Cc2ccc(NC(=O)[C@H](Cc3ccccc3Cl)NC(=O)c3ccccc3)cc2)NC(=O)CC2(CCCC2)CC(=O)N1 [Compound 144]
pIC50: > 7.00
--
compound: O=C1CNC(=O)[C@@H](Cc2ccc(NC(=O)[C@H](Cc3ccccc3Cl)NC(=O)Cc3ccccn3)cc2)NC(=O)CC2(CCCC2)CC(=O)NCCCCCN1 [Compound 226]
pIC50: > 7.00
--
compound: CC[C@H](C)[C@H](NC(=O)Cc1ccccc1)C(=O)Nc1ccc(C[C@H]2NC(=O)CC3(CCCC3)CC(=O)N[C@H](C(=O)OC)CCCCNC(=O)CCCNC2=O)cc1 [Compound 122]
pIC50: 5.00 to 6.00
--
compound: COC(=O)[C@@H]1CCCCNC(=O)CNC(=O)[C@@H](Cc2ccc(NC(=O)[C@H](Cc3ccccc3Cl)NC(=O)Cc3ccc(O)cc3)cc2)NC(=O)CC2(CCCC2)CC(=O)N1 [Compound 249]
pIC50: > 7.00
--
compound: O=C1CNC(=O)[C@@H](Cc2ccc(NC(=O)[C@@H](NC(=O)Cc3ccccc3)C3CCCCC3)cc2)NC(=O)CC2(CCCC2)CC(=O)N[C@H](C(=O)O)CCCCN1 [Compound 316]
pIC50: > 7.00

---

# reported Kd; entries follow
system: IL17A (Homo sapiens)
experimentalDetails: Surface Plasmon Resonance (SPR) analysis of compound interactions with IL17A
testSettings: SPR binding to IL17A

entrySmiles: O=C1CNC(=O)[C@@H](Cc2ccc(NC(=O)[C@H](Cc3ccc(O)cc3)NC(=O)Cc3ccccc3)cc2)NC(=O)CC2(CCCC2)CC(=O)NCCCCCN1
system: IL17A (Homo sapiens)
Kd: 100 to 1000 nM
//
entrySmiles: COC(=O)[C@@H]1Cc2ccc(cc2)NC(=O)CCCNC(=O)[C@@H](Cc2ccc(NC(=O)[C@H](Cc3ccccc3F)NC(=O)c3ccccc3)cc2)NC(=O)CC2(CCCC2)CC(=O)N1
system: IL17A (Homo sapiens)
Kd: 100 to 1000 nM
//
entrySmiles: COC(=O)[C@H]1CCCCNC(=O)CCCNC(=O)[C@H](Cc2ccc(NC(=O)[C@H](Cc3ccccc3F)NC(=O)Cc3ccccc3)cc2)NC(=O)CC2(CCCC2)CC(=O)N1
system: IL17A (Homo sapiens)
Kd: 1000 to 10000 nM
//
entrySmiles: O=C1CNC(=O)[C@@H](Cc2ccc(NC(=O)[C@H](Cc3ccccc3Cl)NC(=O)c3cncnc3)cc2)NC(=O)CC2(CCCC2)CC(=O)NCCCCCN1
system: IL17A (Homo sapiens)
Kd: < 100 nM
//
entrySmiles: O=C1CNC(=O)[C@@H](Cc2ccc(NC(=O)[C@H](Cc3c(F)cccc3F)NC(=O)Cc3ccccc3)cc2)NC(=O)CC2(CCCC2)CC(=O)NCCCCCN1
system: IL17A (Homo sapiens)
Kd: < 100 nM

---

system: recombinant human IL17a (binding to its receptor IL17R) (Homo sapiens)
Construct: 177-IR (IL17R/Fc)
experimentalDetails: IL-17 competition ELISA I (IL17a coated, IL17R/Fc binding)
metricName: IC50

molecule: O=C1CC2(CCCC2)CC(=O)N[C@H](Cc2ccc(NC(=O)[C@H](Cc3ccccc3Cl)NC(=O)Cc3ccccc3)cc2)C(=O)NCC(=O)OCCCCCN1 [Compound 318]
readoutValue: 100 to 1000 nM
//
molecule: CN1CCCCCNC(=O)CC2(CCCC2)CC(=O)N[C@H](Cc2ccc(NC(=O)[C@H](Cc3ccccc3Cl)NC(=O)Cc3ccccc3)cc2)C(=O)NCC1=O [Compound 281]
readoutValue: < 100 nM
//
molecule: CC1(C)CC(=O)NCCCCCNC(=O)CNC(=O)[C@@H](Cc2ccc(NC(=O)[C@H](CC3CC3)NC(=O)Cc3ccccc3)cc2)NC(=O)C1 [Compound 245]
readoutValue: 1000 to 10000 nM
//
molecule: O=C1CNC(=O)[C@@H](Cc2ccc(NC(=O)[C@H](Cc3ccccc3Cl)NC(=O)c3ccc(F)c(F)c3F)cc2)NC(=O)CC2(CCCC2)CC(=O)NCCCCCN1 [Compound 328]
readoutValue: 100 to 1000 nM
//
molecule: C[C@H]1NC(=O)[C@@H](Cc2ccc(NC(=O)[C@H](Cc3ccccc3Cl)NC(=O)Cc3ccccc3)cc2)NC(=O)CC2(CCCC2)CC(=O)N[C@H](C(=O)O)CCCCNC1=O [Compound 367]
readoutValue: < 100 nM

---

system: biotinylated human IL-17 (binding to IL17R/Fc) (Homo sapiens)
Construct: 177-IR (IL17R/Fc)
experimentalDetails: IL-17 competition ELISA II (captured IL17R/Fc, biotinylated IL-17)
pIC50: −log10 of the molar value.
# reported pIC50; entries follow

entrySmiles: O=C1CC2(CCCC2)CC(=O)N[C@H](Cc2ccc(NC(=O)[C@H](Cc3ccccc3Cl)NC(=O)c3ccccc3O)cc2)C(=O)NCCOCCOCCN1
system: biotinylated human IL-17 (binding to IL17R/Fc) (Homo sapiens)
pIC50: > 7.00

entrySmiles: CN1CCCCCNC(=O)CC2(CCCC2)CC(=O)N(C)[C@H](Cc2ccc(N(C)C(=O)[C@H](Cc3ccccc3Cl)N(C)C(=O)Cc3ccccc3)cc2)C(=O)N(C)CC1=O
system: biotinylated human IL-17 (binding to IL17R/Fc) (Homo sapiens)
pIC50: 6.00 to 7.00

entrySmiles: CN1CCNCCOC(=O)CC2(CCCC2)CC(=O)N[C@H](Cc2ccc(NC(=O)[C@H](Cc3ccccc3Cl)NC(=O)Cc3ccccc3)cc2)C(=O)N[C@H](Cc2ccccc2)C1=O
system: biotinylated human IL-17 (binding to IL17R/Fc) (Homo sapiens)
pIC50: > 7.00

---

system: recombinant human IL17a (binding to its receptor IL17R) (Homo sapiens, UniProt Q16552)
Construct: 177-IR (IL17R/Fc)
Sequence (Q16552 20-155 limits assumed): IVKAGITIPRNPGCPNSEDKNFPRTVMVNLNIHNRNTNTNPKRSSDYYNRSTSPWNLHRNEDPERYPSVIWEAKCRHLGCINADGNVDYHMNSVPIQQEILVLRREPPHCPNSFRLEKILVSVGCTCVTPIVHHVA
experimentalDetails: IL-17 competition ELISA I (IL17a coated, IL17R/Fc binding)
pIC50: −log10 of the molar value.
metricName: pIC50

compound: O=C1CCCNC(=O)[C@@H](Cc2ccc(NC(=O)[C@H](Cc3ccccc3Cl)NC(=O)Cc3ccccc3)cc2)NC(=O)CC2(CCCC2)CC(=O)NCCCN1 [Compound 158]
metricName: pIC50
readoutValue: > 7.00
--
compound: O=C1CNC(=O)[C@@H](Cc2ccc(NC(=O)[C@H](Cc3ccccc3Cl)NC(=O)c3ccc(C(=O)O)cc3)cc2)NC(=O)CC2(CCCC2)CC(=O)NCCCCCN1 [Compound 299]
metricName: pIC50
readoutValue: 5.00 to 6.00
--
compound: O=C1CC2(CCCC2)CC(=O)N[C@H](Cc2ccc(NC(=O)[C@@H](NC(=O)Cc3ccc(CO)cc3)C3CCCCC3)cc2)C(=O)NCCOCCOCCN1 [Compound 344]
metricName: pIC50
readoutValue: 5.00 to 6.00
--
compound: CC(=O)N[C@H](C(=O)Nc1ccc(C[C@H]2NC(=O)CC3(CCCC3)CC(=O)NCCCCCNC(=O)CNC2=O)cc1)C1CCCCC1 [Compound 377]
metricName: pIC50
readoutValue: > 7.00
--
compound: C[C@H]1C(=O)NCCCCCNC(=O)CC2(CCCC2)CC(=O)N[C@H](Cc2ccc(NC(=O)[C@H](Cc3ccccc3Cl)NC(=O)Cc3ccccc3)cc2)C(=O)N1C [Compound 291]
metricName: pIC50
readoutValue: 5.00 to 6.00
--
compound: CN1CCCCCNC(=O)CC2(CCCC2)CC(=O)N[C@H](Cc2ccc(NC(=O)[C@@H](NC(=O)Cc3ccc(CO)cc3)C3CCCCC3)cc2)C(=O)NCC1=O [Compound 351]
metricName: pIC50
readoutValue: 6.00 to 7.00
--
compound: COC(=O)[C@@H]1CCCCNC(=O)CC2(CCCC2)CC(=O)N[C@H](Cc2ccc(NC(=O)[C@H](Cc3ccccc3Cl)NC(=O)Cc3ccccc3)cc2)C(=O)NCC(=O)N1 [Compound 285]
metricName: pIC50
readoutValue: > 7.00
--
compound: CN1CCNC(=O)CNC(=O)[C@@H](Cc2ccc(NC(=O)[C@H](Cc3ccccc3Cl)NC(=O)Cc3ccccc3)cc2)NC(=O)CC2(CCCC2)CC(=O)NCC1 [Compound 323]
metricName: pIC50
readoutValue: 6.00 to 7.00
--
compound: CN(C(=O)Cc1ccccc1)[C@@H](Cc1ccccc1)C(=O)Nc1ccc(C[C@H]2NC(=O)CC3(CCCC3)CC(=O)NCCCCCNC(=O)CNC2=O)cc1 [Compound 238]
metricName: pIC50
readoutValue: 5.00 to 6.00
--
compound: O=C1CNC(=O)[C@@H](Cc2ccc(NC(=O)[C@H](Cc3ccccc3Cl)NC(=O)Cc3ccccc3)cc2)NC(=O)CC2(CCCC2)CC(=O)NCCNCCN1 [Compound 338]
metricName: pIC50
readoutValue: 6.00 to 7.00
--
compound: CC(C)(C)OC[C@@H]1NC(=O)[C@@H](Cc2ccc(NC(=O)[C@H](Cc3ccccc3Cl)NC(=O)Cc3ccccc3)cc2)NC(=O)CC2(CCCC2)CC(=O)NCCCCCNC1=O [Compound 320]
metricName: pIC50
readoutValue: 6.00 to 7.00
